Source: patent US20070155764A1

Target: human B-Raf protein kinase (Homo sapiens, UniProt P15056)
Construct: GST (N); 14-420 (Mek1)
Sequence (P15056 416-766): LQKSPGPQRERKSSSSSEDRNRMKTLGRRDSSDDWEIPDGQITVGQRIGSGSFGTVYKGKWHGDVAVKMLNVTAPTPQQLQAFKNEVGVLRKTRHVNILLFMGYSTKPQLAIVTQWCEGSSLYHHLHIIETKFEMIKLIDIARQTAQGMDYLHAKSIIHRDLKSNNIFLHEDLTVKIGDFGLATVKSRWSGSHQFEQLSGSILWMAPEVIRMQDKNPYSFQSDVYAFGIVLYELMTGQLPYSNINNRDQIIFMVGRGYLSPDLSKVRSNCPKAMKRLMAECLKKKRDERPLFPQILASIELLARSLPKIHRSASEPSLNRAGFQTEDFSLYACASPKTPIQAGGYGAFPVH
Assay: In vitro B-Raf/Mek1 composite kinase assay
Conditions: recombinant GST-tagged human B-Raf (Δ1-415) with inactive Mek1, 2 μM ATP
reported.property: IC50

Consider the following illustrative entries.
>>> reported_result("Cc1nn(C)c(C)c1-c1cc(Oc2ccc(NC(=O)Nc3ccc(Cl)c(C(F)(F)F)c3)cc2)ncn1 [Example 70]")
"> 10 µM"
>>> reported_result("Cc1nn(C)c(C)c1-c1cc(Oc2cccc(NC(=O)Nc3ccc(Cl)c(C(F)(F)F)c3)c2)ncn1 [Example 69]")
"≤ 10 µM"
>>> reported_result("Cn1cc(-c2cc(Oc3cccc(NC(=O)Nc4ccc(C(F)(F)F)cc4F)c3)ncn2)cn1 [Example 91]")
"≤ 10 µM"
>>> reported_result("Cn1cc(-c2cc(Oc3ccc(F)c(NC(=O)Nc4ccc(Cl)c(C(F)(F)F)c4)c3)ncn2)cn1 [Example 66]")
"≤ 10 µM"
>>> reported_result("CN1CCC(Oc2cc(Cl)c(C(F)(F)F)cc2NC(=O)Nc2ccc(Oc3ccnc(-c4nnco4)c3)cc2)CC1 [Example 44]")
"≤ 10 µM"
>>> reported_result("Cn1nnnc1-c1cc(Oc2cccc(NC(=O)Nc3ccc(Cl)c(C(F)(F)F)c3)c2)ncn1 [Example 21]")
"≤ 10 µM"

Proceed to the following item.
Qu. Which IC50 value is on record for Cn1ccc(-c2cc(Oc3cccc(NC(=O)Nc4ccc(Cl)c(C(F)(F)F)c4)c3)ncn2)n1 [Example 61] ?
Ans. ≤ 10 µM

* * *

Molecular target: PDGFRβ kinase (Homo sapiens, UniProt P09619)
Sequence (P09619 33-1106): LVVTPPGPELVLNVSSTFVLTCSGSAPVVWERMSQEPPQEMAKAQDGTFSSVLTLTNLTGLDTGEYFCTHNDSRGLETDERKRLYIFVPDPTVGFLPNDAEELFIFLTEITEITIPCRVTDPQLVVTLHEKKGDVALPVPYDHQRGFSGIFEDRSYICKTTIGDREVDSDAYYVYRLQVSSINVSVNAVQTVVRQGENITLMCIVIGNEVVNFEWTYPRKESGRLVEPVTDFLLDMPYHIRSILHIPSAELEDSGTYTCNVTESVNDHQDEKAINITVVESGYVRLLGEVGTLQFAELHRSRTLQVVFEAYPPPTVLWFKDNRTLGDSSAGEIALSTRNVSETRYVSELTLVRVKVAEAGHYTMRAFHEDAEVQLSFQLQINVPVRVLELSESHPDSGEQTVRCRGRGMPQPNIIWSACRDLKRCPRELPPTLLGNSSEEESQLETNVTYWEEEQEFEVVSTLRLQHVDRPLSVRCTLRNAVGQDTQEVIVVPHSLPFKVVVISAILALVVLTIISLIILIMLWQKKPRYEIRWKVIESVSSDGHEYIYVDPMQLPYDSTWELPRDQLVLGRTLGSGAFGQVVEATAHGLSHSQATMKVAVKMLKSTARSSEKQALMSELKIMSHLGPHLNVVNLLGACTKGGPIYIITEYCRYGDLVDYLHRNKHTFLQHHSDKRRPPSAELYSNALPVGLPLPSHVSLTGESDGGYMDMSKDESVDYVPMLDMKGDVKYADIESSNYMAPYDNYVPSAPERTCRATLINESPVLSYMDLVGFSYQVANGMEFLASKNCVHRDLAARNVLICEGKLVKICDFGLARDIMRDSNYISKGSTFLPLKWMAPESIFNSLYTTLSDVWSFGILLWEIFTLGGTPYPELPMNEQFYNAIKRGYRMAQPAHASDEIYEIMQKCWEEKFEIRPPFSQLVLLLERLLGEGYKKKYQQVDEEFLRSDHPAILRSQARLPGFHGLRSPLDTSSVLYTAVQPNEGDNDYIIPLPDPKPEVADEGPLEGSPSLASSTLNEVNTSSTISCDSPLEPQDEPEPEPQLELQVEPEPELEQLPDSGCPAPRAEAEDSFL
pIC50: −log10 of the molar value.
Reported pIC50 by item:

>>> reported_result("O=C(Nc1ccc(Oc2cc(-c3cnn(CCN4CCOCC4)c3)ncn2)cc1)Nc1ccc(Cl)c(C(F)(F)F)c1")
"≥ 5.00"
>>> reported_result("O=C(Nc1ccc(Oc2ccnc(-n3cncn3)n2)cc1)Nc1ccc(Cl)c(C(F)(F)F)c1")
"< 5.00"

Qu. Which pIC50 value is on record for `COCCOc1ccc(NC(=O)Nc2ccc(Oc3cc(-c4cnn(C)c4)ncn3)cc2)cc1C(F)(F)F` ?
Ans. ≥ 5.00

Qu. Which pIC50 value is on record for `O=C(Nc1cccc(Oc2cc(-c3ncon3)ncn2)c1)Nc1ccc(Cl)c(C(F)(F)F)c1` ?
Ans. ≥ 5.00

* * *

Biological target: VEGFR2 kinase (Homo sapiens)
Sequence (P35968 20-1356): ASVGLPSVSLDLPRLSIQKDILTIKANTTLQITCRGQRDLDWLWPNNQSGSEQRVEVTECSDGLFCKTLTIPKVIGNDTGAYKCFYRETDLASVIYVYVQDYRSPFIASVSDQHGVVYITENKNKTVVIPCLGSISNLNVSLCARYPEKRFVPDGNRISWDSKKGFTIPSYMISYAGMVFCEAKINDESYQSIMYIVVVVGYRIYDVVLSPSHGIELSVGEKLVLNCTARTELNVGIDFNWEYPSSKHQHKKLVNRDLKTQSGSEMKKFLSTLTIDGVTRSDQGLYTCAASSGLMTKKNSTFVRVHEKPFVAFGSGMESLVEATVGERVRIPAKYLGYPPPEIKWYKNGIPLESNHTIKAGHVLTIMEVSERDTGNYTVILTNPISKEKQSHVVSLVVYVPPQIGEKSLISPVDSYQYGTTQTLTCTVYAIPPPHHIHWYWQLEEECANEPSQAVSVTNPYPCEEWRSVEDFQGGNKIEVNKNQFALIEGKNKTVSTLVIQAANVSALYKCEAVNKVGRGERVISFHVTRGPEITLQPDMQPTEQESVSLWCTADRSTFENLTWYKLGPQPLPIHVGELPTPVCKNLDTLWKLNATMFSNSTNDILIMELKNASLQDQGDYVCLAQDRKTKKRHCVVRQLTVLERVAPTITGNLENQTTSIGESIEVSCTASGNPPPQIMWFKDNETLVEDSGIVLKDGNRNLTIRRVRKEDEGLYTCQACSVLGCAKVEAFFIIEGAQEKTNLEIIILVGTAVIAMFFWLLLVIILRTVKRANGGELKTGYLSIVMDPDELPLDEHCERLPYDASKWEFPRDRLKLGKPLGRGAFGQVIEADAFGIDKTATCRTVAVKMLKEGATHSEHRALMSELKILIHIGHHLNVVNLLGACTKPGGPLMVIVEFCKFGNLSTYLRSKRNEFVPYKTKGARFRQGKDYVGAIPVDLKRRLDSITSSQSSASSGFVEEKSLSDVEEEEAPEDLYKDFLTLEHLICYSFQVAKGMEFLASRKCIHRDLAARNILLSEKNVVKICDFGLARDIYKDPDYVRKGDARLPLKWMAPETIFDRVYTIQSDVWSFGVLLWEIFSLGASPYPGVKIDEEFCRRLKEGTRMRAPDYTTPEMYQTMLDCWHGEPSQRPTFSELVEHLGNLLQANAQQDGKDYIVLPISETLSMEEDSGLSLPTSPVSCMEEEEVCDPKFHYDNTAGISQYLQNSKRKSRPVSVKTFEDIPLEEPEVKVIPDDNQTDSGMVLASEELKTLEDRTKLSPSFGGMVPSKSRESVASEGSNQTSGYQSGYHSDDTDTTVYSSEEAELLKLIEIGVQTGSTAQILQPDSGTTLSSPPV
Reported IC50 by item:

>>> reported_result("Cn1cc(-c2nccc(Oc3ccc(NC(=O)Nc4cccc(C(F)(F)F)c4)cc3)n2)cn1")
"≤ 10 µM"
>>> reported_result("Cn1cc(-c2nccc(Oc3cc(NC(=O)Nc4ccc(Cl)c(C(F)(F)F)c4)c(F)cc3F)n2)cn1")
"≤ 10 µM"
>>> reported_result("O=C(Nc1ccc(Oc2cc(-c3nc(C(F)(F)F)c[nH]3)ncn2)cc1)Nc1ccc(Cl)c(C(F)(F)F)c1")
"> 10 µM"
>>> reported_result("Cn1cc(-c2nccc(Oc3ccc(NC(=O)Nc4ccc(C(F)(F)F)cc4)cc3)n2)cn1")
"≤ 10 µM"
>>> reported_result("O=C(Nc1cccc(Oc2cc(-c3ncc[nH]3)ncn2)c1)Nc1ccc(Cl)c(C(F)(F)F)c1")
"≤ 10 µM"
>>> reported_result("O=C(Nc1cccc(Oc2cc(-c3nnco3)ncn2)c1)Nc1ccc(C(F)(F)F)c(Cl)c1")
"≤ 10 µM"

Proceed to the following item.
Qu. IC50 of `O=C(Nc1cccc(Oc2ccnc(-c3nnco3)c2)c1)Nc1cc(C(F)(F)F)c(Cl)cc1OCCN1CCCC1` on VEGFR2 kinase (Homo sapiens)?
Ans. ≤ 10 µM

* * *

Target: human B-Raf protein kinase (Homo sapiens)
Construct: GST (N); 14-420 (Mek1)
Assay: In vitro B-Raf/Mek1 composite kinase assay
Details: recombinant GST-tagged human B-Raf (Δ1-415) with inactive Mek1, 2 μM ATP
reported.property: IC50

Consider the following illustrative entries.
>>> reported_result("Cc1cn(-c2cc(NC(=O)Nc3ccc(Oc4cc(-c5cnn(C)c5)ncn4)cc3)cc(C(F)(F)F)c2)cn1")
"≤ 10 µM"
>>> reported_result("Cn1cc(-c2nccc(Oc3ccc(NC(=O)Nc4ccc(C(F)(F)F)cc4)cc3)n2)cn1")
"≤ 10 µM"
>>> reported_result("Cn1cc(-c2nccc(Oc3ccc(F)c(NC(=O)Nc4ccc(Cl)c(C(F)(F)F)c4)c3)n2)cn1")
"≤ 10 µM"

Qu. Which IC50 value is on record for `O=C(Nc1ccc(C(F)(F)F)cc1)Nc1cccc(Oc2cc(-c3nnco3)ncn2)c1` ?
Ans. ≤ 10 µM

Qu. Which IC50 value is on record for `COC(=O)Cn1cc(-c2cc(Oc3cccc(NC(=O)Nc4ccc(Cl)c(C(F)(F)F)c4)c3)ncn2)cn1` ?
Ans. ≤ 10 µM

Qu. Which IC50 value is on record for `O=C(Nc1cccc(Oc2ccnc(-c3nnco3)n2)c1)Nc1ccc(Cl)c(C(F)(F)F)c1` ?
Ans. ≤ 10 µM

Qu. Which IC50 value is on record for `O=C(Nc1cccc(Oc2cc(-c3ncn[nH]3)ncn2)c1)Nc1ccc(Cl)c(C(F)(F)F)c1` ?
Ans. ≤ 10 µM

Qu. Which IC50 value is on record for `O=C(Nc1cccc(Oc2ccnc(-c3nnco3)c2)c1)Nc1cc(C(F)(F)F)c(Cl)cc1OCCN1CCCC1` ?
Ans. ≤ 10 µM

* * *

Biological target: UniProt:P35968
reported.property: IC50

Consider the following illustrative entries.
>>> reported_result("O=C(Nc1cccc(Oc2cc(-c3nnco3)ncn2)c1)Nc1cc(CN2CCOCC2)cc(C(F)(F)F)c1")
"≤ 10 µM"
>>> reported_result("O=C(Nc1cccc(Oc2cc(-c3nnco3)ncn2)c1)Nc1cc(C(F)(F)F)c(Cl)cc1OCCN1CCCC1")
"≤ 10 µM"
>>> reported_result("Cc1nn(C)c(C)c1-c1cc(Oc2ccc(NC(=O)Nc3ccc(Cl)c(C(F)(F)F)c3)cc2)ncn1")
"> 10 µM"

Proceed to the following item.
Qu. Which IC50 value is on record for `COCCOc1ccc(NC(=O)Nc2cc(Oc3ccnc(-c4cnn(C)c4)n3)c(F)cc2F)cc1C(F)(F)F` ?
Ans. ≤ 10 µM

* * *

Target: human B-Raf protein kinase (Homo sapiens, UniProt P15056)
Construct: GST (N); 14-420 (Mek1)
Assay: In vitro B-Raf/Mek1 composite kinase assay
Settings: recombinant GST-tagged human B-Raf (Δ1-415) with inactive Mek1, 2 μM ATP
Reported IC50 by item:

Qu. Which IC50 value is on record for `COCCOc1ccc(NC(=O)Nc2ccc(Oc3cc(-c4nnco4)ncn3)cc2)cc1C(F)(F)F` ?
Ans. > 10 µM

Qu. Which IC50 value is on record for `COCCOc1ccc(NC(=O)Nc2cc(Oc3ccnc(-c4cnn(C)c4)n3)c(F)cc2F)cc1C(F)(F)F` ?
Ans. ≤ 10 µM

Qu. Which IC50 value is on record for `CNC(=O)c1cc(Oc2ccc(N(C)C(=O)Nc3cc(-n4cnc(C)c4)cc(C(F)(F)F)c3)cc2)ccn1` ?
Ans. ≤ 10 µM

Qu. Which IC50 value is on record for `O=C(Nc1ccc(Oc2ccnc(-n3cncn3)n2)cc1)Nc1ccc(Cl)c(C(F)(F)F)c1` ?
Ans. > 10 µM

Qu. Which IC50 value is on record for `CN1CCN(Cc2cc(NC(=O)Nc3cccc(Oc4cc(-c5nnco5)ncn4)c3)cc(C(F)(F)F)c2)CC1` ?
Ans. ≤ 10 µM

Qu. Which IC50 value is on record for `O=C(Nc1cccc(Oc2cc(-c3ncco3)ncn2)c1)Nc1ccc(Cl)c(C(F)(F)F)c1` ?
Ans. ≤ 10 µM

Qu. Which IC50 value is on record for `CN1CCN(Cc2cc(NC(=O)Nc3cccc(Oc4ccnc(-c5nnco5)c4)c3)cc(C(F)(F)F)c2)CC1` ?
Ans. ≤ 10 µM

* * *

Target: human B-Raf protein kinase (Homo sapiens, UniProt P15056)
Construct: GST (N); 14-420 (Mek1)
Experiment: In vitro B-Raf/Mek1 composite kinase assay
Conditions: recombinant GST-tagged human B-Raf (Δ1-415) with inactive Mek1, 2 μM ATP
Reported IC50 by item:

>>> reported_result("O=C(Nc1ccc(Oc2cc(-c3nc(C(F)(F)F)c[nH]3)ncn2)cc1)Nc1ccc(Cl)c(C(F)(F)F)c1 [Example 73]")
"≤ 10 µM"
>>> reported_result("CN(C(=O)Nc1ccc(Cl)c(C(F)(F)F)c1)c1ccc(Oc2ccnc(-c3nc(C(F)(F)F)c[nH]3)c2)cc1 [Example 120]")
"≤ 10 µM"
>>> reported_result("C#Cc1cccc(NC(=O)Nc2cccc(Oc3cc(-c4cnn(C)c4)ncn3)c2)c1 [Example 86]")
"≤ 10 µM"
>>> reported_result("Cn1cc(-c2cc(Oc3ccc(NC(=O)Nc4ccc(C(F)(F)F)cc4)cc3)ncn2)cn1 [Example 101]")
"> 10 µM"
>>> reported_result("NC(=O)Cn1ccc(-c2cc(Oc3cccc(NC(=O)Nc4ccc(Cl)c(C(F)(F)F)c4)c3)ncn2)n1 [Example 59]")
"≤ 10 µM"
>>> reported_result("Cn1cc(-c2nccc(Oc3cccc(NC(=O)Nc4ccc(Cl)c(C(F)(F)F)c4)c3)n2)cn1 [Example 71]")
"≤ 10 µM"

Proceed to the following item.
Qu. Which IC50 value is on record for O=C(Nc1ccc(Oc2ccnc(-c3ncon3)n2)cc1)Nc1ccc(Cl)c(C(F)(F)F)c1 [Example 7] ?
Ans. > 10 µM
